- ASSAYED SYSTEM: RORγ LBD (Homo sapiens (Human), UniProt P51449)
- Sequence (P51449 269-508): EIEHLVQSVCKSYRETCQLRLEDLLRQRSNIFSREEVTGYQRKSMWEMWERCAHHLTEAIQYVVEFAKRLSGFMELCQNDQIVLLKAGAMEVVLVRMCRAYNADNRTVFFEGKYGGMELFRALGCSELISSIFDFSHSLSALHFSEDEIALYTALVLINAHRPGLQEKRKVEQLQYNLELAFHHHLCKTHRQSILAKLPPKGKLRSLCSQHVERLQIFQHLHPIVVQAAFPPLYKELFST
- PROTOCOL TEXT: TR-FRET co-activator D22 interaction with RORγ LBD
- Format: biochemical
- DETAILS: 20 hr; read-out: RORγ EC50 D22 co-activator displacement 20 hr
OBSERVED PROPERTY: EC50

Sample answers from the record:
| MOL SMILES | EC50 |
| --- | --- |
| CC(=O)Nc1ccc2c(c1)CCN2Cc1ccc(C(=O)Nc2ccccc2)cc1 | < 30 µM |
| CC(=O)Nc1ccc2c(c1)CCN2Cc1ccc(C(=O)N(C)C)cc1 | > 30 µM |
| CC(=O)Nc1ccc2c(c1)CCN2Cc1ccc(C(N)=O)cc1 | > 30 µM |

Attention now turns to another entry.
EC50 for CC(=O)Nc1ccc2c(c1)CCN2Cc1ccc(C(C)C)cc1 is < 30 µM
